# assayed_target: D(2) dopamine receptor (Rattus norvegicus, UniProt P61169)
# Sequence (P61169 whole entry): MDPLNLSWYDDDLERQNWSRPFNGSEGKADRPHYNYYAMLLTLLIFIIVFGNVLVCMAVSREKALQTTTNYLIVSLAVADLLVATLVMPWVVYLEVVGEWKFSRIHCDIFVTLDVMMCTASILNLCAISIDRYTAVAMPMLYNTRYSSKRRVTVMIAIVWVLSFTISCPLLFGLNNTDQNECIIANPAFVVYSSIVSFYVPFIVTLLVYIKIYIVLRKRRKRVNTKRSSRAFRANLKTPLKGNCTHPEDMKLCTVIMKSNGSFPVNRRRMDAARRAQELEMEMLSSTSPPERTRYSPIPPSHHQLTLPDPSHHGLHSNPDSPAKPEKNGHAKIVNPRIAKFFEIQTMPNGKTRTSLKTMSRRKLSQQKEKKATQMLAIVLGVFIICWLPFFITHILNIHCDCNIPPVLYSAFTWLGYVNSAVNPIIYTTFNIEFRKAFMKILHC
# assay_remarks: Binding affinity against dopamine receptor D2 from rat corpus striatum by using radioligand [3H]sulpiride
Category key, based on recorded Ki: lower band: < 300 nM; central band: ≥ 300 nM and < 600 nM; upper band: ≥ 600 nM

Task item: For this molecule, which bin applies? c1ccc2c(c1)ccn2CCCCN1C2CCC1c1c([nH]c3ccccc13)C2 (configuration not stated)
Reply: upper band

Task item: For this molecule, which bin applies? O=C(CCCN1C2CCC1c1c([nH]c3ccc(F)cc13)C2)c1ccco1 (configuration not stated)
Reply: upper band

Task item: For this molecule, which bin applies? O=C(CCCN1C2CCC1c1c([nH]c3ccccc13)C2)c1ccccc1 (configuration not stated)
Reply: central band

Task item: For this molecule, which bin applies? O=C(CCCN1C2CCC1c1c([nH]c3ccccc13)C2)c1cccs1 (configuration not stated)
Reply: central band

Task item: For this molecule, which bin applies? Fc1ccc(CCCCN2C3CCCC2c2c([nH]c4ccccc24)C3)cc1 (configuration not stated)
Reply: upper band

Task item: For this molecule, which bin applies? O=C(CCCCN1C2CCC1c1c([nH]c3ccc(F)cc13)C2)c1ccc(F)cc1 (configuration not stated)
Reply: lower band

---

# assayed_target: Serotonin 2 (5-HT2) receptor (Mus musculus) (UniProt Q02152+P34968+P35363)
# Sequence (P34968 whole entry, looked up): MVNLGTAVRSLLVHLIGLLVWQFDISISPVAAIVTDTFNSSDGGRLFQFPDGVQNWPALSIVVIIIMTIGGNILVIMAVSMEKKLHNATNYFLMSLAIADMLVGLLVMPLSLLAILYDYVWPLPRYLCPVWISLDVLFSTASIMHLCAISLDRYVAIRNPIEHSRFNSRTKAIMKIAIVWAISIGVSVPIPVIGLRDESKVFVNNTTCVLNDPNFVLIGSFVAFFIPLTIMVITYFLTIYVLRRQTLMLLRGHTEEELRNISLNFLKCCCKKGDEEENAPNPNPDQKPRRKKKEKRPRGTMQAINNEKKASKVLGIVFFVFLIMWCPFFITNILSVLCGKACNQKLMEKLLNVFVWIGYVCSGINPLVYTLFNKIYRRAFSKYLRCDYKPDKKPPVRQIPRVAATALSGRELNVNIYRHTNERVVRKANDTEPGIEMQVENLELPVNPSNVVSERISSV
# Sequence (P35363 whole entry, looked up): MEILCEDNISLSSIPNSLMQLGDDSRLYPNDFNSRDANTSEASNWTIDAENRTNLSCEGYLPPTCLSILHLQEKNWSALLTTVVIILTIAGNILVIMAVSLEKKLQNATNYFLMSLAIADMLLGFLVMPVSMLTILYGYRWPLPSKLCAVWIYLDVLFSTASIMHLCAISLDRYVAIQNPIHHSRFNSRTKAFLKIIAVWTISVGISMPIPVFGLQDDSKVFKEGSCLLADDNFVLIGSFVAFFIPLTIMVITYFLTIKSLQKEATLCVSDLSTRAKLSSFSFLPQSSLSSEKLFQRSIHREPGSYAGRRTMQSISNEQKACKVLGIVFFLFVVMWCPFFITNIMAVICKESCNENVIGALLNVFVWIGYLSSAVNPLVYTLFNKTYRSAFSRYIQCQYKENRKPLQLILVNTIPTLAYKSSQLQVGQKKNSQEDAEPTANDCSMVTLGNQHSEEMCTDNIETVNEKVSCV
# Sequence (Q02152 whole entry, looked up): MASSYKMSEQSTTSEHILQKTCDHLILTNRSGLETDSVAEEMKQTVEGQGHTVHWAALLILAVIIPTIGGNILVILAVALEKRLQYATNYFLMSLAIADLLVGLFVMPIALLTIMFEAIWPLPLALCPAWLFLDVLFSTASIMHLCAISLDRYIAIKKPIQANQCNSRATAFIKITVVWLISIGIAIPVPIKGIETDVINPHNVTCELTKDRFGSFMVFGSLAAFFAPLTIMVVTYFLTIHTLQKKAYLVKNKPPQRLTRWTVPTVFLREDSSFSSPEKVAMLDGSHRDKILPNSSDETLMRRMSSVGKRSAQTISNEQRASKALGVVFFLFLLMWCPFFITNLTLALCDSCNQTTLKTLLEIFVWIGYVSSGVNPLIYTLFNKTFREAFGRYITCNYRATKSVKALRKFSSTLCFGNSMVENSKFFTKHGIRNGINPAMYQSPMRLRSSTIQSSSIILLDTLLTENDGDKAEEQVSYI
# assay_remarks: Effective dose through peroral route for in vivo inhibition against 5-hydroxytryptamine 2 receptor in male CF-1 mice by using radioligand [3H]ketanserin
# Format: organism-based
Under this convention, MET denotes ED50 strictly below 20 mg/kg and NOT MET denotes ED50 at or above 20 mg/kg.

Illustrative cases are given below, each with its answer.
molecule: O=C(CCCCN1C2CCC1c1c([nH]c3ccccc13)C2)c1ccc(F)cc1 (configuration not stated)
assayed_target: Serotonin 2 (5-HT2) receptor (Mus musculus) (UniProt Q02152+P34968+P35363)
group_label: MET
//
molecule: O=C(CCCCN1C2CCC1c1c([nH]c3ccc(F)cc13)C2)c1ccccc1 (configuration not stated)
assayed_target: Serotonin 2 (5-HT2) receptor (Mus musculus) (UniProt Q02152+P34968+P35363)
group_label: MET
//
molecule: O=C(CCCN1C2CCC1c1c([nH]c3ccc(F)cc13)C2)c1ccc(F)cc1 (configuration not stated)
assayed_target: Serotonin 2 (5-HT2) receptor (Mus musculus) (UniProt Q02152+P34968+P35363)
group_label: NOT MET
//
molecule: Cc1nc2sccn2c(=O)c1CCN1CCC(=C(c2ccc(F)cc2)c2ccc(F)cc2)CC1 [RITANSERIN]
assayed_target: Serotonin 2 (5-HT2) receptor (Mus musculus) (UniProt Q02152+P34968+P35363)
group_label: MET
//
molecule: O=C(CCCN1C2CCC1c1c([nH]c3ccccc13)C2)c1ccc(F)cc1 (configuration not stated)
assayed_target: Serotonin 2 (5-HT2) receptor (Mus musculus) (UniProt Q02152+P34968+P35363)
group_label: NOT MET
//
molecule: O=C(CCCN1C2CCCC1c1c([nH]c3ccccc13)C2)c1ccc(F)cc1 (configuration not stated)
assayed_target: Serotonin 2 (5-HT2) receptor (Mus musculus) (UniProt Q02152+P34968+P35363)
group_label: MET

Turning now to a further molecule:
Task item: Regarding O=C(CCCN1C2CCCC1c1c([nH]c3ccc(F)cc13)C2)c1ccc(F)cc1 (configuration not stated) , kindly confirm whether its ED50 is beneath 20 mg/kg.
Reply: MET

---

# assayed_target: D(2) dopamine receptor (Rattus norvegicus)
# assay_remarks: Binding affinity against dopamine receptor D2 from rat corpus striatum by using radioligand [3H]sulpiride
measured_parameter: Ki (nM)
Numbers only here, please. The scale is nM.

Below, 2 compounds whose answers are already recorded.
compound: Fc1ccc(CCCCN2C3CCCC2c2c([nH]c4ccc(F)cc24)C3)cc1 (stereo unspecified)
Ki, nM: 1960
--
compound: Fc1ccc2c(CCCCN3C4CCCC3c3c([nH]c5cccc(F)c35)C4)noc2c1 (stereo unspecified)
Ki, nM: 131

Input O=C(CCCCN1C2CCCC1c1c([nH]c3ccccc13)C2)c1ccccc1 (stereo unspecified) . Output Ki: 43.5

Input c1ccc2c(CCCN3C4CCC3c3c([nH]c5ccccc35)C4)c[nH]c2c1 (stereo unspecified) . Output Ki: 1160

Input O=C1CC2CCC(C1)N2CCCC(=O)c1ccc(F)cc1 . Output Ki: 1.3

---

# assayed_target: 5-HT2A receptor (Rattus norvegicus)
# assay_remarks: Binding affinity against 5-hydroxytryptamine 2 receptor from rat cortical synaptosomal membrane using radioligand [3H]ketanserin.
Under this convention, y denotes Ki strictly below 300 nM and n denotes Ki at or above 300 nM.

Illustrative cases are given below, each with its answer.
compound: O=C(CCCN1C2CCC1c1c([nH]c3ccc(F)cc13)C2)c1ccco1 (stereo not given)
assayed_target: 5-HT2A receptor (Rattus norvegicus)
group_label: y
//
compound: c1ccc2c(CCCCN3C4CCC3c3c([nH]c5ccccc35)C4)c[nH]c2c1 (stereo not given)
assayed_target: 5-HT2A receptor (Rattus norvegicus)
group_label: n
//
compound: Cn1c2c(c3ccccc31)C1CCC(C2)N1CCCC(=O)c1ccc(F)cc1 (stereo not given)
assayed_target: 5-HT2A receptor (Rattus norvegicus)
group_label: y
//
compound: Fc1ccc2c(CCCN3C4CCCC3c3c([nH]c5ccc(F)cc35)C4)noc2c1 (stereo not given)
assayed_target: 5-HT2A receptor (Rattus norvegicus)
group_label: y
//
compound: c1ccc2c(c1)ccn2CCCCN1C2CCC1c1c([nH]c3ccccc13)C2 (stereo not given)
assayed_target: 5-HT2A receptor (Rattus norvegicus)
group_label: y

Task item: Regarding O=C(CCCCN1C2CCCC1c1c([nH]c3ccc(F)cc13)C2)c1ccccc1 (stereo not given) , kindly confirm whether its Ki is beneath 300 nM.
Reply: y

Task item: Regarding c1ccc2sc(CCCCN3C4CCC3c3c([nH]c5ccccc35)C4)cc2c1 (stereo not given) , kindly confirm whether its Ki is beneath 300 nM.
Reply: n

Task item: Regarding O=C1c2ccccc2C(=O)N1CCCCN1C2CCC1c1c([nH]c3ccccc13)C2 (stereo not given) , kindly confirm whether its Ki is beneath 300 nM.
Reply: n

Task item: Regarding O=C(CCCN1C2CCCC1c1c([nH]c3ccccc13)C2)c1ccc(F)cc1 (stereo not given) , kindly confirm whether its Ki is beneath 300 nM.
Reply: y

Task item: Regarding Fc1ccc2[nH]c3c(c2c1)C1CCCC(C3)N1CCCCc1ccccc1 (stereo not given) , kindly confirm whether its Ki is beneath 300 nM.
Reply: y

---

# assayed_target: 5-HT2A receptor (Rattus norvegicus)
# assay_remarks: Binding affinity against 5-hydroxytryptamine 2 receptor from rat cortical synaptosomal membrane using radioligand [3H]ketanserin.
Category key, based on recorded Ki: class 0: < 0.02 µM; class 1: ≥ 0.02 µM and < 0.1 µM; class 2: ≥ 0.1 µM

Illustrative cases are given below, each with its answer.
compound: Fc1ccc2c(CCCCN3C4CCCC3c3c([nH]c5cccc(F)c35)C4)noc2c1 (stereo not given)
group_label: class 2
//
compound: O=C1CC2CCC(C1)N2CCCC(=O)c1ccc(F)cc1
group_label: class 2
//
compound: O=C(CCCN1C2CCC1c1c([nH]c3ccccc13)C2)c1ccccc1 (stereo not given)
group_label: class 0

Task item: For this compound, which bin applies? O=C(CCCCN1C2CCCC1c1c([nH]c3ccccc13)C2)c1ccccc1 (stereo not given)
Reply: class 1

Task item: For this compound, which bin applies? O=C(CCCCN1C2CCC1c1c([nH]c3ccc(F)cc13)C2)c1ccccc1 (stereo not given)
Reply: class 0

Task item: For this compound, which bin applies? Fc1ccc(CCCCN2C3CCCC2c2c([nH]c4ccc(F)cc24)C3)cc1 (stereo not given)
Reply: class 2

Task item: For this compound, which bin applies? O=S1(=O)c2cccc3cccc(c23)N1CCCCN1C2CCC1c1c([nH]c3ccc(F)cc13)C2 (stereo not given)
Reply: class 2

Task item: For this compound, which bin applies? O=C(CCCN1C2CCC1c1c(n(-c3ccccc3)c3ccccc13)C2)c1ccc(F)cc1 (stereo not given)
Reply: class 2

Task item: For this compound, which bin applies? Fc1ccc(CCCCN2C3CCCC2c2c([nH]c4ccccc24)C3)cc1 (stereo not given)
Reply: class 1

---

# assayed_target: D(2) dopamine receptor (Rattus norvegicus)
# assay_remarks: Binding affinity against dopamine receptor D2 from rat corpus striatum by using radioligand [3H]sulpiride
pKi: −log10 of the molar value.
Category key, based on recorded pKi: bin A = under 6, bin B = from 6 up to 7, bin C = 7 and over

Illustrative cases are given below, each with its answer.
compound: c1ccc2sc(CCCCN3C4CCC3c3c([nH]c5ccccc35)C4)cc2c1 (stereo unspecified)
group_label: bin B
--
compound: Fc1ccc2c(CCCN3C4CCCC3c3c([nH]c5ccc(F)cc35)C4)noc2c1 (stereo unspecified)
group_label: bin B
--
compound: O=C1c2ccccc2C(=O)N1CCCCN1C2CCC1c1c([nH]c3ccccc13)C2 (stereo unspecified)
group_label: bin A
--
compound: O=C(CCCN1C2CCC1c1c([nH]c3ccccc13)C2)c1ccc(F)cc1 (stereo unspecified)
group_label: bin B
--
compound: O=C(CCCCN1C2CCC1c1c([nH]c3ccc(F)cc13)C2)c1ccccc1 (stereo unspecified)
group_label: bin C

Turning now to a further compound:
Task item: For this compound, which bin applies? Cn1c2c(c3ccccc31)C1CCC(C2)N1CCCC(=O)c1ccc(F)cc1 (stereo unspecified)
Reply: bin B
